# system: VHL (Homo sapiens, UniProt P40337)
# protocol.description: Fluorescence polarization competition assay (HIF-1α peptide FP displacement)
# condition: IC50 (μM) 1% DMSO, 1% DMSO

{"columns": ["smiles.text", "unit.text", "relation.sign", "IC50"],
 "data": [
  ["O=C(NCc1ccc(Cl)cc1)[C@@H]1C[C@@H](O)CN1C(=O)c1ccc2cn[nH]c2c1", "µM", "=", 73],
  ["Cc1cc(CC(=O)N2C[C@H](O)C[C@H]2C(=O)NCc2ccc(-c3ccncc3)cc2)on1", "µM", "=", 41],
  ["O=C(NCc1ccc(Cl)cc1)[C@@H]1C[C@@H](O)CN1C(=O)c1ccccc1-c1cnco1", "µM", ">", 1000],
  ["Cc1cc(CC(=O)N2C[C@H](O)C[C@H]2C(=O)OCc2ccc(-c3ccccc3)cc2)on1", "µM", ">", 1000],
  ["COCc1cn(CC(=O)N2C[C@H](O)C[C@H]2C(=O)NCc2ccc(Cl)cc2)nn1", "µM", "=", 220],
  ["O=C(NCc1ccc(Cl)cc1)[C@@H]1C[C@@H](O)CN1C(=O)c1ccc2[nH]ncc2c1", "µM", "=", 82],
  ["Cc1cc(CC(=O)N2C[C@H](O)C[C@H]2C(=O)NCc2ccc(-c3cn[nH]c3)cc2)on1", "µM", "=", 44],
  ["Cc1cc(CC(=O)N2C[C@H](O)C[C@H]2C(=O)NCc2ccc(-c3ncon3)cc2)on1", "µM", "=", 19],
  ["Cn1cc(CC(=O)N2C[C@H](O)C[C@H]2C(=O)NCc2ccc(Cl)cc2)cn1", "µM", "=", 360],
  ["Cc1cc(CC(=O)N2C[C@H](O)C[C@H]2C(=O)NCc2ccc(-c3ccn[nH]3)cc2)on1", "µM", "=", 9],
  ["Cc1cc(CC(=O)N2C[C@H](O)C[C@H]2C(=O)NCc2cccc(-c3cccn3C)c2)on1", "µM", "=", 31],
  ["O=C(NCc1ccc(Cl)cc1)[C@@H]1C[C@@H](O)CN1C(=O)c1cccc(-c2ncc[nH]2)c1", "µM", "=", 404],
  ["CCOC(=O)Cn1cc(-c2cccc(C(=O)N3C[C@H](O)C[C@H]3C(=O)NCc3ccc(Cl)cc3)c2)nn1", "µM", "=", 113],
  ["Cc1cc(CC(=O)N2C[C@H](O)C[C@H]2C(=O)NCc2ccc(-c3cccn3C)cc2)on1", "µM", "=", 33],
  ["Cc1cc(CCN2C[C@H](O)C[C@H]2C(=O)NCc2ccc(-c3ccccc3)cc2)on1", "µM", ">", 1000],
  ["Cc1cc(CC(=O)N2C[C@H](O)C[C@H]2C(=O)NCc2ccc(-c3c[nH]nn3)cc2)on1", "µM", "=", 17],
  ["Cc1cc(CC(=O)N2C[C@H](O)C[C@H]2C(=O)NCc2ccc(-c3ocnc3C)cc2)on1", "µM", "=", 13],
  ["Cc1cc(CC(=O)N2C[C@H](O)C[C@H]2C(=O)NCc2ccc(-c3cccnc3)cc2)on1", "µM", "=", 54],
  ["O=C(NCc1ccc(-c2ccccc2)cc1)[C@@H]1C[C@@H](O)CN1Cc1ccccc1Cl", "µM", ">", 1000],
  ["CCCNC(=O)OC[C@H](NC(=O)[C@@H]1C[C@@H](O)CN1C(=O)Cc1cc(C)no1)c1ccc(Cl)cc1", "µM", "=", 40],
  ["Cc1cc(CC(=O)N2C[C@H](O)C[C@H]2C(=O)NCc2ccc(C(=O)O)cc2)on1", "µM", "=", 196],
  ["Cc1cc(CC(=O)N2C[C@H](O)C[C@H]2C(=O)NCc2ccc(-c3ccc(F)nc3)cc2)on1", "µM", "=", 33],
  ["Cc1cc(CC(=O)N2C[C@H](O)C[C@H]2C(=O)OCc2ccc(Cl)cc2)on1", "µM", ">", 1000],
  ["O=C(NCc1ccc(Cl)cc1)[C@@H]1C[C@@H](O)CN1C(=O)c1cccc2[nH]ccc12", "µM", "=", 670],
  ["O=C(NCc1ccc(Cl)cc1)[C@@H]1C[C@@H](O)CN1S(=O)(=O)c1cccc2cccnc12", "µM", ">", 1000],
  ["Cc1cc(CC(=O)N2C[C@H](O)C[C@H]2C(=O)NCc2cccc(-c3cc[nH]c3)c2)on1", "µM", "=", 54],
  ["Cc1cc(CC(=O)N2C[C@H](O)C[C@H]2C(=O)N(C)Cc2ccc(Cl)cc2)on1", "µM", ">", 1000],
  ["O=C(NCc1ccc(Cl)cc1)[C@@H]1C[C@@H](O)CN1C(=O)Cc1c[nH]cn1", "µM", ">", 1000],
  ["COc1ccc(Cn2cncc2-c2ccc(CNC(=O)[C@@H]3C[C@@H](O)CN3C(=O)Cc3cc(C)no3)cc2)cc1", "µM", "=", 85],
  ["Cc1cc(CC(=O)N2C[C@H](O)C[C@H]2C(=O)NCc2ccc(-c3cncs3)cc2)on1", "µM", "=", 14],
  ["Cc1cc(CC(=O)N2C[C@H](O)C[C@H]2C(=O)NCc2ccc(-c3cnc[nH]3)cc2)on1", "µM", "=", 180],
  ["CCCNC(=O)OC[C@@H](NC(=O)[C@@H]1C[C@@H](O)CN1C(=O)Cc1cc(C)no1)c1ccc(Cl)cc1", "µM", "=", 610]
]}
